# Test system: RPSL12-TetR
# Construct: gene rpsL; single-chain fusion RPSL12 (372 bp) - linker (45 bp) - TetR (636 bp), total 1053 bp, in pET-32a(+), His-tag, expressed in E. coli host, Ni-NTA from soluble supernatant, about 41 kDa
# assayNotes: microplate direct competition chemiluminescence, coated fusion protein, MC-HRP tracer
# Assay type: binding, Escherichia coli
# experimentalConditions: competition with minocycline-HRP conjugate (TetR part); blank pork extract; 37 °C, 30 min
metricName: IC50 (ng/mL)

| molecule | measuredNumber |
| --- | --- |
| CN(C)[C@@H]1C(O)=C(C(=O)NCNCCCC[C@H](N)C(=O)O)C(=O)[C@@]2(O)C(O)=C3C(=O)c4c(O)cccc4[C@@](C)(O)[C@H]3C[C@@H]12 [LMC] | 0.0427 |
| CN(C)[C@@H]1C(=O)C(C(N)=O)=C(O)[C@@]2(O)C(=O)C3=C(O)c4c(O)cccc4[C@@](C)(O)[C@H]3C[C@@H]12 [TC] | 0.038 |
| CN(C)c1ccc(O)c2c1C[C@H]1C[C@H]3[C@H](N(C)C)C(O)=C(C(N)=O)C(=O)[C@@]3(O)C(O)=C1C2=O [MC] | 0.0357 |
| C[C@H]1c2cccc(O)c2C(=O)C2=C(O)[C@]3(O)C(=O)C(C(N)=O)=C(O)[C@@H](N(C)C)[C@@H]3[C@@H](O)[C@@H]21 [DC] | 0.0395 |
| CN(C)[C@@H]1C(=O)C(C(N)=O)=C(O)[C@@]2(O)C(=O)C3=C(O)c4c(O)ccc(Cl)c4[C@@H](O)[C@H]3C[C@@H]12 [DMC] | 0.0287 |
| C=C1c2cccc(O)c2C(O)=C2C(=O)[C@]3(O)C(O)=C(C(N)=O)C(=O)[C@@H](N(C)C)[C@@H]3[C@@H](O)[C@H]12 [MTC] | 0.0418 |
| CN(C)c1cc(NC(=O)CNC(C)(C)C)c(O)c2c1C[C@H]1C[C@H]3[C@H](N(C)C)C(=O)C(C(N)=O)=C(O)[C@@]3(O)C(=O)C1=C2O [TIC] | 0.0414 |
| CN(C)[C@@H]1C(=O)C(C(N)=O)=C(O)[C@@]2(O)C(=O)C3=C(O)c4c(O)ccc(Cl)c4[C@@](C)(O)[C@H]3C[C@@H]12 [CTC] | 0.0344 |
| CN(C)[C@@H]1C(=O)C(C(N)=O)=C(O)[C@@]2(O)C(=O)C3=C(O)c4c(O)cccc4C[C@H]3C[C@@H]12 [SC] | 0.0378 |
| CN(C)[C@@H]1C(=O)C(C(N)=O)=C(O)[C@@]2(O)C(=O)C3=C(O)c4c(O)cccc4[C@@](C)(O)[C@H]3[C@H](O)[C@@H]12 [OTC] | 0.0402 |
